biological target: Tenebrio molitor EcR (TmEcR-DEF) (Tenebrio molitor, UniProt O02035); assay: Two-hybrid gene switch assay, TmEcR-DEF in NIH3T3 cells
Sequence (O02035 194-491): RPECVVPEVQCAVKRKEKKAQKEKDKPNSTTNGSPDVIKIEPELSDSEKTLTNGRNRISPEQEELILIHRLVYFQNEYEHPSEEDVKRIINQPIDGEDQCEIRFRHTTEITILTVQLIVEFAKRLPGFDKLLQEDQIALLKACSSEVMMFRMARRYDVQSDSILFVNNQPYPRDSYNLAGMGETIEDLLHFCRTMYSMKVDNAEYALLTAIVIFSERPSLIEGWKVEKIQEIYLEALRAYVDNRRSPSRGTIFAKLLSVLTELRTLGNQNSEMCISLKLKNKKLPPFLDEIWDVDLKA
Sequence (P28704 285-520 partner): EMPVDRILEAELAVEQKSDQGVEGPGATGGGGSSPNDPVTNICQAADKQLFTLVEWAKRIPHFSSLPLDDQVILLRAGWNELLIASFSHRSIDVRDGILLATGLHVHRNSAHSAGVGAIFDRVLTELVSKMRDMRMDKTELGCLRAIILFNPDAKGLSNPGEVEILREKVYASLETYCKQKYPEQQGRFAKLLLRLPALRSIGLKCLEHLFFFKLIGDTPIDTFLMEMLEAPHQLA
measured-endpoint: EC50

Known results for compounds:
CO[C@H]1C[C@@]2(C)[C@@H](C[C@H]1O)C(=O)C=C1[C@@H]2CC[C@]2(C)[C@@H]([C@@](C)(O)[C@H](O)CCC(C)(C)O)CC[C@@]12O [20E-2-methyl ether] | > 33 µM
CO[C@@H]1C[C@H]2C(=O)C=C3[C@H](CC[C@]4(C)[C@@H]([C@@](C)(O)[C@H](O)CCC(C)(C)O)CC[C@@]34O)[C@@]2(C)C[C@@H]1O [20E-3-methyl ether] | ~10 µM

Hi! Can you tell me EC50 for each of these compounds?
1. CO[C@H](CCC(C)(C)O)[C@](C)(O)C1CC[C@@]2(O)C3=CC(=O)C4C[C@@H](O)[C@@H](O)CC4(C)C3CCC12C (some centres unmarked) [20E-22-methyl ether]
2. CO[C@@H]1C[C@H]2C(=O)C=C3[C@H](CC[C@]4(C)[C@@H]([C@@](C)(O)[C@@H](CCC(C)(C)O)OC)CC[C@@]34O)[C@@]2(C)C[C@@H]1O [20E-3,22-dimethyl ether]
3. CO[C@H]1C[C@@]2(C)[C@@H](C[C@H]1O)C(=O)C=C1[C@@H]2CC[C@]2(C)[C@@H]([C@@](C)(O)[C@@H](CCC(C)(C)O)OC)CC[C@@]12O [20E-2,22-dimethyl ether]

Solution:
1. 7.08 µM
2. ~6 µM
3. ~10 µM

---

target: TmEcR (GAL4-EcR DEF with VP16-RXR partner) (Tenebrio molitor); test: Two-hybrid gene switch assay, luciferase reporter, TmEcR, mouse NIH3T3 cells; details: EC50, FIG. 14A/14B, GAL4-EcR(DEF)
Sequence (P28704 whole entry partner, one chain of several, the tested form may be a part): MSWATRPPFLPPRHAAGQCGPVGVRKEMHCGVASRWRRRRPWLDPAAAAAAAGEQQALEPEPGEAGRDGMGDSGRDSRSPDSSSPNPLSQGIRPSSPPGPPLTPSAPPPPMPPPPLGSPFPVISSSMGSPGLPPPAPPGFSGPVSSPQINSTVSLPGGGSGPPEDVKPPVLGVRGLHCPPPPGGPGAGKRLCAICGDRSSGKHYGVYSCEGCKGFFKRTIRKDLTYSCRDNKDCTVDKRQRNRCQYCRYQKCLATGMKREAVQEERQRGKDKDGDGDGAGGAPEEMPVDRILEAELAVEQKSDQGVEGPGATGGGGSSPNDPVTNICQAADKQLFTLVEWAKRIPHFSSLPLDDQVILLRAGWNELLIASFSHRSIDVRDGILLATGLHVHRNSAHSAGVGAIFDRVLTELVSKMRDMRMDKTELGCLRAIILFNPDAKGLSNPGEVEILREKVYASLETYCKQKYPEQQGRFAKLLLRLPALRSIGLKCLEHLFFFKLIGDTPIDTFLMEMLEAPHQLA
Consider the following compounds; for each one, report its EC50.

Known results for compounds:
C[C@H]([C@H](O)CCC(C)(C)O)[C@H]1CC[C@@]2(O)C3=CC(=O)[C@@H]4C[C@@H](O)[C@@H](O)C[C@]4(C)[C@H]3CC[C@]12C [ecdysone] | > 33 µM
CC(C)CC[C@@H](O)[C@](C)(O)[C@H]1CC[C@@]2(O)C3=CC(=O)[C@@H]4C[C@@H](O)[C@@H](O)C[C@]4(C)[C@H]3[C@H](O)C[C@]12C [ajugasterone C] | 9.51 µM

Hi! Can you tell me EC50 for each of these compounds?
1. CC(C)(O)CC[C@@H](O)[C@](C)(O)[C@H]1CC[C@@]2(O)C3=CC(=O)[C@@H]4C[C@H](O)[C@@H](O)C[C@]4(C)[C@H]3CC[C@]12C
2. CC(C)(O)C(CCC(C)(O)C1CCC2(O)C3=CC(=O)C4CC(O)C(O)CC4(C)C3CCC12C)OC(=O)c1ccc[nH]1 (centres unmarked) [canescensterone]
3. CC(C)(O)CC[C@@H](O)[C@](C)(O)[C@H]1CC[C@@]2(O)C3=CC(=O)[C@]4(O)C[C@@H](O)[C@@H](O)C[C@]4(C)[C@H]3CC[C@]12C [polypodine B]

Solution:
1. > 33 µM
2. ~0.33 µM
3. ~10 µM

---

Consider the following molecules; for each one, report its pEC50.
molecular target: VgEcR/RXR (Drosophila melanogaster, UniProt P34021, E282G/G283S/G286V); details: EC50, VgEcR/RXR switch in 3T3 cells
Sequence (P34021 whole entry E282G/G283S/G286V): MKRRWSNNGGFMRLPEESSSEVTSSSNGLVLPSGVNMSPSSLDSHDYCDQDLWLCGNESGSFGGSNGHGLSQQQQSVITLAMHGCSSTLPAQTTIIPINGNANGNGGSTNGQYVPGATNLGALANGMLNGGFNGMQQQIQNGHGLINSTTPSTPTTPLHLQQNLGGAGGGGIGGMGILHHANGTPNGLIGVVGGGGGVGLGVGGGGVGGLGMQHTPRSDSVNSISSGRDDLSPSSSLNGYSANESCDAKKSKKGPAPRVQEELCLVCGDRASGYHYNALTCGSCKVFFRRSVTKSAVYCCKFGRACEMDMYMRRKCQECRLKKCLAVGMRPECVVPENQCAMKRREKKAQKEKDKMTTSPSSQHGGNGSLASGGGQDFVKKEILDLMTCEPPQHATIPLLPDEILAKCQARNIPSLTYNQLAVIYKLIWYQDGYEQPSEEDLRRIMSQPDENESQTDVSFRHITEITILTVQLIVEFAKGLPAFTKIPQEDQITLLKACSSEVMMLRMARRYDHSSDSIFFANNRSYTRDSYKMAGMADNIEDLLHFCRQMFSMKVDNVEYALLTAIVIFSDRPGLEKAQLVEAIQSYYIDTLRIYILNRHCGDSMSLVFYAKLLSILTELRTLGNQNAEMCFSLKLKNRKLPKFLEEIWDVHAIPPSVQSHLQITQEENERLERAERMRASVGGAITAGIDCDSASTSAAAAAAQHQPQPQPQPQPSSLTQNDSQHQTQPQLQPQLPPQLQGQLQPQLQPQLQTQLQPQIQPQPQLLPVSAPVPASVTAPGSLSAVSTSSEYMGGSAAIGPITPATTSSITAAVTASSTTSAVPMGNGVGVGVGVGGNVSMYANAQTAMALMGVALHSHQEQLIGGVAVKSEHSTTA
Sequence (P19793 whole entry, further chain): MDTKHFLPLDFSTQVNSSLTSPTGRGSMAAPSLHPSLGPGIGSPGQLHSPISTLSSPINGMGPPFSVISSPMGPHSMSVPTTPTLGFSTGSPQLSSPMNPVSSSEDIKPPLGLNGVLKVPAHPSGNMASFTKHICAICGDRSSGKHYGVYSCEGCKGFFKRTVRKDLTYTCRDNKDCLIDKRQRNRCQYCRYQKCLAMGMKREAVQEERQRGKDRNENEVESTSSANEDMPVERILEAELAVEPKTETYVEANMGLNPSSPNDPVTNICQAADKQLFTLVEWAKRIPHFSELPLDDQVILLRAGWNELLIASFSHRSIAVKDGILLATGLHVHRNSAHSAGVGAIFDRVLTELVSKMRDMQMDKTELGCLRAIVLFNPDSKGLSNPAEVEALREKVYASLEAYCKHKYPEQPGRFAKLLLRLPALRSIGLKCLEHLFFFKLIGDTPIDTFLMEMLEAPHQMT
Numbers only, as −log10 of the molar value.

CO[C@H](CCC(C)C)[C@](C)(O)[C@H]1CC[C@@]2(O)C3=CC(=O)[C@@H]4C[C@@H](O)[C@@H](O)C[C@]4(C)[C@H]3CC[C@]12C | 6.26

Now turn to the next molecule.
Looking up CC(C)CC[C@@H](O)[C@](C)(O)[C@H]1CC[C@@]2(O)C3=CC(=O)[C@@H]4C[C@@H](O)[C@@H](O)C[C@]4(C)[C@H]3CC[C@]12C , I see its pEC50 listed as 6.19

---

molecular target: UniProtKB O44338; experiment: Two-hybrid gene switch assay, luciferase reporter, AmaEcR, mouse NIH3T3 cells; details: EC50, FIG. 14A/14B, GAL4-EcR(DEF) with VP16-RXR-USP chimera
Sequence (O44338 255-570, change not shown): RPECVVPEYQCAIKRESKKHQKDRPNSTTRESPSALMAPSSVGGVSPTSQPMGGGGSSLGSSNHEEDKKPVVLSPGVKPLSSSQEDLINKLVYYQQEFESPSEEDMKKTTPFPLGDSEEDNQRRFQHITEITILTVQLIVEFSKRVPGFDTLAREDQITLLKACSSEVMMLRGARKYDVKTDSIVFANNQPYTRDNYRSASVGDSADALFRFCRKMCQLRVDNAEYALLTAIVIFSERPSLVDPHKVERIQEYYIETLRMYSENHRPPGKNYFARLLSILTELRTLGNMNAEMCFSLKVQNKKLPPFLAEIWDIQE
Sequence (P28702 whole entry partner, the tested form may be a part): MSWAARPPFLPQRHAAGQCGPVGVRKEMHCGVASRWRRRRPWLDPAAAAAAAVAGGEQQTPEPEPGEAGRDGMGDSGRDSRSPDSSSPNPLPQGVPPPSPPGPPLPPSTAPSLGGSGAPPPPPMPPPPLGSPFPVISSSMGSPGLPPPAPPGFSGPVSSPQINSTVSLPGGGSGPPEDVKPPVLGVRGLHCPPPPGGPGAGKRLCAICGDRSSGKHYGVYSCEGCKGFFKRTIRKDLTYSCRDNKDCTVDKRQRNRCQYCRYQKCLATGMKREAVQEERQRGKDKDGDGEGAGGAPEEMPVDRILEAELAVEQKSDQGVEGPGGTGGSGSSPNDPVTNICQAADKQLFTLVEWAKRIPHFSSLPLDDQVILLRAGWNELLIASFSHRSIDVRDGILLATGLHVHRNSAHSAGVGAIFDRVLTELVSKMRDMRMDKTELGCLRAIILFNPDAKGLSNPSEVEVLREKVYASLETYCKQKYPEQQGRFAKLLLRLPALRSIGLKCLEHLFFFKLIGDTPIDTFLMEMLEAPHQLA
pEC50: −log10 of the molar value.
Consider the following molecules; for each one, report its pEC50.

Hi! Can you tell me pEC50 for each of these molecules?
1. CC(C)(O)CC[C@@H](O)[C@](C)(O)[C@H]1CC[C@@]2(O)C3=C[C@H](O)[C@@H]4C[C@@H](O)[C@@H](O)C[C@]4(C)[C@H]3CC[C@]12C [Compound 6a-hydroxy-20-hydroxyecdysone]
2. CC(C)(O)CC[C@@H](O)[C@](C)(O)[C@H]1CC[C@@]2(O)C3=CC(=O)[C@@H]4C[C@H]5OC(C)(C)O[C@H]5C[C@]4(C)[C@H]3CC[C@]12C [20-hydroxyecdysone-2,3-acetonide]
3. CC(C)(O)CC[C@@H](O)[C@](C)(O)[C@H]1CC[C@@]2(O)C3=CC(=O)[C@@H]4C[C@@H](O)[C@@H](O)C[C@]4(C)C3=CC[C@]12C [Compound 25-hydroxydacryhainansterone]
4. C[C@H]([C@H](O)CCC(C)(C)O)[C@H]1CC[C@@]2(O)C3=CC(=O)[C@@H]4C[C@@H](O)[C@@H](O)C[C@]4(C)[C@H]3CC[C@]12C [ecdysone]
5. CC(C(O)CCC(C)(C)O)C1CCC2(O)C3=CC(=O)C4CC(O)CCC4(C)C3CCC12C (centres unmarked) [Compound 2-deoxyecdysone]

Solution:
1. 5.00
2. ~5.15
3. ~5.48
4. ~5.15
5. ~6.00

---

biological target: wild-type Aedes aegypti EcR (AaEcR-DEF) (Aedes aegypti); assay: Two-hybrid gene switch assay, AaEcR-DEF in NIH3T3 cells; conditions: AaEcR; max fold induction at any concentration relative to 20E
Sequence (P49880 405-776 limits assumed): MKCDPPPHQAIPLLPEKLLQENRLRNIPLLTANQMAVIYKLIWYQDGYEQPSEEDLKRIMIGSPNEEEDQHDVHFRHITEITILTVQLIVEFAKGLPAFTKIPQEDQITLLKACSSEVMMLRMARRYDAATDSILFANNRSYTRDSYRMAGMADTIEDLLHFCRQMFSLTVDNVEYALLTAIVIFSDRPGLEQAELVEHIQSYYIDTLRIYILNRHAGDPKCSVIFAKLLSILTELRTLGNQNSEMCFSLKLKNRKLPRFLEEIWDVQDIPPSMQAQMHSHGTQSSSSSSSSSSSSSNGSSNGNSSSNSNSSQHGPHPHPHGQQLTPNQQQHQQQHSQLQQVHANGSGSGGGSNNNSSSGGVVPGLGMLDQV
measured-endpoint: rel max FI (20E), AA
Answers are plain numbers.

CO[C@@H]1C[C@H]2C(=O)C=C3[C@H](CC[C@]4(C)[C@@H]([C@@](C)(O)[C@H](O)CCC(C)(C)O)CC[C@@]34O)[C@@]2(C)C[C@@H]1O [20E-3-methyl ether] | 1.75
COC1C[C@H]2C(=O)C=C3[C@H](CC[C@]4(C)[C@@H]([C@@](C)(O)C(CCC(C)(C)O)OC)CC[C@@]34OC)[C@@]2(C)CC1OC (stereo partly drawn) [20E-2,3,14,22-tetramethyl ether] | 0.07

Now turn to the next compound.
Looking up CO[C@@H]1C[C@H]2C(=O)C=C3[C@H](CC[C@]4(C)[C@@H]([C@@](C)(O)[C@@H](CCC(C)(C)O)OC)CC[C@@]34O)[C@@]2(C)C[C@@H]1O [20E-3,22-dimethyl ether] , I see its rel max FI (20E), AA listed as 2.32

---

target: wild-type Drosophila melanogaster EcR (DmEcR; GAL4-EcR DEF with VP16-RXR-USP chimera) (Drosophila melanogaster); test: Two-hybrid gene switch assay, luciferase reporter, wild-type DmEcR, mouse NIH3T3 cells; format: cell-based; settings: EC50, FIG. 14A/14B, GAL4-EcR(DEF) with VP16-RXR-USP chimera
Sequence (P34021 with tags, fused parts or gaps limits assumed): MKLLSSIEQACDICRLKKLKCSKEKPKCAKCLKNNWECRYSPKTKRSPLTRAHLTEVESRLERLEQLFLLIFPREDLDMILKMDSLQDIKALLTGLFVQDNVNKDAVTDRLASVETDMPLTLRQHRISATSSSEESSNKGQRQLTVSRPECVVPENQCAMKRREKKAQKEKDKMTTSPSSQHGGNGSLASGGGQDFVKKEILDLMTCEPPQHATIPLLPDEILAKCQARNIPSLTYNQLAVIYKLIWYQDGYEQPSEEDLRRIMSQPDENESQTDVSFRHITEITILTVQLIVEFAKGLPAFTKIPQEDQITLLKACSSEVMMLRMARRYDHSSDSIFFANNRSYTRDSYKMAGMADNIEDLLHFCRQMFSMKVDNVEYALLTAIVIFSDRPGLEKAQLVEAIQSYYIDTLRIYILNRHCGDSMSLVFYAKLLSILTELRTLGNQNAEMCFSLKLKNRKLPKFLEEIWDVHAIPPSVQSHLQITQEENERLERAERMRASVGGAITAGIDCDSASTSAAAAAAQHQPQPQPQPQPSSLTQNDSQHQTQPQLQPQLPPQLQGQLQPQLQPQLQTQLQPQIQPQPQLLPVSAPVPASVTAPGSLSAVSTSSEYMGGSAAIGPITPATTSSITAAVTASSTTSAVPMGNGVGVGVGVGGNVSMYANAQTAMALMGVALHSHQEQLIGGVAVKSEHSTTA
Consider the following compounds; for each one, report its pEC50.
Numbers only, as −log10 of the molar value.

C[C@@H](CO)CC[C@@H](O)[C@](C)(O)[C@H]1CC[C@@]2(O)C3=CC(=O)[C@@H]4C[C@@H](O)[C@@H](O)C[C@]4(C)[C@H]3CC[C@]12C [(25R)-inokosterone] | 5.02

Now turn to the next compound.
Looking up CC(C)=CC[C@@H](O)[C@](C)(O)[C@H]1CC[C@@]2(O)C3=CC(=O)[C@@H]4C[C@@H](O)[C@@H](O)C[C@]4(C)[C@H]3CC[C@]12C [stachysterone C] , I see its pEC50 listed as 6.41

---

target: wild-type CfEcR (GAL4-CfEcR-DEF with VP16-RXR-USP chimera) (Choristoneura fumiferana); assay: Two-hybrid gene switch assay, luciferase reporter, wild-type CfEcR, mouse NIH3T3 cells
Sequence (O77255 219-541, change not shown): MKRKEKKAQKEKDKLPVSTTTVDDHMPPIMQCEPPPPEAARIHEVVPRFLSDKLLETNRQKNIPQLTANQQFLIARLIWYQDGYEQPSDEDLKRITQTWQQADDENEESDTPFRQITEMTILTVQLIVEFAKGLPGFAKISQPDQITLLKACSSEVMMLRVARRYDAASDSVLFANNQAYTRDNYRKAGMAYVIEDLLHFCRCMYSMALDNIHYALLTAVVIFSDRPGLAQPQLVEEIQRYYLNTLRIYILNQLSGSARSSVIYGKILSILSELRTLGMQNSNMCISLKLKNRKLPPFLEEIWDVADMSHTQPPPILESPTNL
Sequence (P28702 whole entry partner, the tested form may be a part): as the sequence (P28702 whole entry partner, the tested form may be a part) above
pEC50: −log10 of the molar value.
measured-endpoint: pEC50

Known results for compounds:
CC(C)(O)CC[C@@H](O)[C@](C)(O)[C@H]1CC[C@@]2(O)C3=C[C@@H](O)[C@@H]4C[C@@H](O)[C@@H](O)C[C@]4(C)[C@H]3CC[C@]12C [Compound 6b-hydroxy-20-hydroxyecdysone] | < 4.48
CC(C)(O)CC[C@@H](OC(=O)c1ccc[nH]1)[C@](C)(O)[C@H]1CC[C@@]2(O)C3=CC(=O)[C@@H]4C[C@@H](O)[C@@H](O)C[C@]4(C)[C@H]3CC[C@]12C | < 4.48
CC(C)(O)CC[C@@H](O)[C@](C)(O)[C@H]1CC[C@@]2(O)C3=CC(=O)[C@@H]4C[C@@H](O)[C@@H](O)[C@@H](O)[C@]4(C)[C@H]3CC[C@]12C [integristerone A] | < 4.48

Hi! Can you tell me pEC50 for each of these compounds?
1. CO[C@H](CCC(C)C)[C@](C)(O)[C@H]1CC[C@@]2(OC)C3=CC(=O)[C@@H]4C[C@@H](O)[C@@H](O)C[C@]4(C)[C@H]3CC[C@]12C [Compound 21]
2. CC(CC(O)C(C)(O)C1CCC2(O)C3=CC(=O)C4CC(O)C(O)CC4(C)C3CCC12C)C(C)(C)O (centres unmarked) [makisterone A]

Solution:
< 4.48
< 4.48

# credit: patent US8536354B2
